// data source = ChEMBL document CHEMBL4689842

System: Fibroblast
Experiment: Multiplex assay against human fibroblast
Format: toxicity, cell-based
Conditions: 24 h, 10 µM, compound concentration 10 uM, replicate 2
value-type: Total Cell Count
Give the figure only, with no unit attached.

Cc1cccc(CN2CCN(C(c3ccccc3)c3ccc(Cl)cc3)CC2)c1.Cl.Cl (stereo not drawn)	67
CC(C)NC(=O)N1CC[C@H](NC2=Nc3cc(F)ccc3N(CC(F)F)c3ccc(Cl)cc32)C1	75
CC1=C(C(=O)Nc2cc3cn[nH]c3cc2F)C(c2ccc(C(F)(F)F)cc2)CC(=O)N1 (stereo not drawn)	119
CC(C)c1noc(N2CCC(COc3ccc(-c4ccc(S(C)(=O)=O)cc4)nc3)CC2)n1	91
COC(=O)C1=C(C)NC(C)=C(C(=O)OCCCN2CCC(c3ccccc3)(c3ccccc3)CC2)[C@H]1c1cccc([N+](=O)[O-])c1	85

Q) Given the entry O=c1[nH]c2ccccc2n1C1CCN(Cc2ccc(-c3[nH]c4cc5ncnc5cc4nc3-c3ccccc3)cc2)CC1 , report its measured Total Cell Count.
A) 143

Q) Given the entry CNC(=O)Nc1ccc2c(c1)[C@@]1(CC2)OC(=O)N(CC(=O)N(Cc2ccc(F)cc2)[C@@H](C)C(F)(F)F)C1=O , report its measured Total Cell Count.
A) 81

Q) Given the entry O=c1cc(N2CCOCC2)oc2c(-c3cccc4c3sc3ccccc34)cccc12 , report its measured Total Cell Count.
A) 86

* * *

Overview of reported Population Mitotic Cells (%) across a group of compounds:
Test system: U2OS
Test: Multiplex assay against U2OS
Format: toxicity, cell-based
Settings: human, 24 h, 10 µM, compound concentration 10 uM, replicate 1
Quick note: give the figure in %, leave out the unit.

Example cases with answers are listed next.
O=c1[nH]c2ccccc2n1C1CCN(Cc2ccc(-c3[nH]c4cc5ncnc5cc4nc3-c3ccccc3)cc2)CC1	44
COC(=O)C1=C(C)NC(C)=C(C(=O)OCCCN2CCC(c3ccccc3)(c3ccccc3)CC2)[C@H]1c1cccc([N+](=O)[O-])c1	21
CN1CCN(Cc2ccc(Nc3ncc(Cl)c(Nc4ccccc4S(=O)(=O)N(C)C)n3)cc2)CC1	15

Q) Given the entry Cc1c[nH]c2nccc(Oc3c(F)cc(Nc4cc(Cl)nc(N)n4)cc3F)c12 , report its measured Population Mitotic Cells (%).
A) 40

* * *

Overview of reported Population Tubulin-Different-Phenotype (%) across a group of compounds:
Tested on: HEK-293T
Assay: Multiplex assay against HEK293T;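 also: share of the cells with healthy nuclei that show this phenotype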
Assay type: toxicity, cell-based
Settings: human, 48 h, 10 µM, compound concentration 10 uM, replicate 2
Quick note: give the figure in %, leave out the unit.

Example cases with answers are listed next.
O=C(c1cc2c(cc1F)OC(c1ccc(F)cc1)(c1ccc(Cl)cc1Cl)O2)N1CCOCC1 (centres undefined)	83
O=c1cc(N2CCOCC2)oc2c(-c3cccc4c3sc3ccccc34)cccc12	96
CC(C)NC(=O)N1CC[C@H](NC2=Nc3cc(F)ccc3N(CC(F)F)c3ccc(Cl)cc32)C1	61

Next up:
Q) Given the entry Cc1c[nH]c2nccc(Oc3c(F)cc(Nc4cc(Cl)nc(N)n4)cc3F)c12 [BAY-549] , report its measured Population Tubulin-Different-Phenotype (%).
A) 8

* * *

Overview of reported Population Fragmented Nuclei (%) across a group of molecules:
System: Fibroblast
Test: Multiplex assay against human fibroblast
Format: toxicity, cell-based
Conditions: 48 h, 1 µM, compound concentration 1 uM, replicate 1
Quick note: give the figure in %, leave out the unit.

Example cases with answers are listed next.
Cc1cccc(CN2CCN(C(c3ccccc3)c3ccc(Cl)cc3)CC2)c1.Cl.Cl (stereo not given)	30
CNC(=O)Nc1ccc(-c2nc(N3CC4CCC(C3)O4)c3cnn(C4CCC5(CC4)OCCO5)c3n2)cc1	42
CC(C)Oc1ccccc1C(=O)Nc1ccccc1C(=O)Nc1cccc(S(=O)(=O)C(F)(F)F)c1	30
Cc1ccc2c(c1)c1c(n2CCc2ccc(C)nc2)CCN(C)C1 [LATREPIRDINE]	36

Q) Given the entry Cc1ccccc1C(c1ccccc1C)N1C2CCC1CC(O)(c1ccccc1)C2 (stereo not given) , report its measured Population Fragmented Nuclei (%).
A) 30

* * *

Tested on: Fibroblast
Assay: Multiplex assay against human fibroblast
Format: toxicity, cell-based
Details: 24 h, 10 µM, compound concentration 10 uM, replicate 2
value-type: Population Mitochondria Different-Phenotype (%)
Quick note: give the figure in %, leave out the unit.

COc1ccc(-c2ccc3ncc4c(c3c2)n(-c2ccc(N3CCNCC3)c(C(F)(F)F)c2)c(=O)n4C)cn1.O=C(O)/C=C\C(=O)O	60
CC(C)Oc1ccccc1C(=O)Nc1ccccc1C(=O)Nc1cccc(S(=O)(=O)C(F)(F)F)c1	94
COc1cc2ncn(-c3cc(OCc4ccccc4C(F)(F)F)c(C(N)=O)s3)c2cc1OC [GW843682X]	91

Next up:
Q) Given the entry CC(C)c1noc(N2CCC(COc3ccc(-c4ccc(S(C)(=O)=O)cc4)nc3)CC2)n1 , report its measured Population Mitochondria Different-Phenotype (%).
A) 12

* * *

Tested on: Fibroblast
Assay: Multiplex assay against human fibroblast
Assay type: toxicity, cell-based
Details: 12 h, 1 µM, compound concentration 1 uM, replicate 1
value-type: Population Hoechst High Intensity Objects (%)
Quick note: give the figure in %, leave out the unit.

Example cases with answers are listed next.
CC(C)CC(=O)Nc1[nH]nc2c1CN(C(=O)C1CCN(C)CC1)C2(C)C [PHA-793887]	11
Cl.O=C(O)c1cc(-c2ccc(C3CCNCC3)cc2)c2ccc(-c3ccc(C(F)(F)F)cc3)cc2c1	20
C[C@]12CC[C@@H]3c4ccc(O)cc4CC[C@H]3[C@@H]1CC[C@@H]2O [ESTRADIOL]	21

Q) Given the entry C=CC(=O)Nc1ccc2[nH]c(=O)n(C3CCN(Cc4ccc(-c5nc6cc[nH]c(=O)c6cc5-c5ccccc5)cc4)CC3)c2c1 [Borussertib] , report its measured Population Hoechst High Intensity Objects (%).
A) 13

Q) Given the entry Cc1c[nH]c2nccc(Oc3c(F)cc(Nc4cc(Cl)nc(N)n4)cc3F)c12 [BAY-549] , report its measured Population Hoechst High Intensity Objects (%).
A) 12

Q) Given the entry COc1cc(Nc2nccc(-c3cnn4nc(OC)ccc34)n2)cc(C(F)(F)F)c1 , report its measured Population Hoechst High Intensity Objects (%).
A) 21

Q) Given the entry CNC(=O)Nc1ccc2c(c1)[C@@]1(CC2)OC(=O)N(CC(=O)N(Cc2ccc(F)cc2)[C@@H](C)C(F)(F)F)C1=O [A-486] , report its measured Population Hoechst High Intensity Objects (%).
A) 9

Q) Given the entry CC1=C(C(=O)Nc2cc3cn[nH]c3cc2F)C(c2ccc(C(F)(F)F)cc2)CC(=O)N1 (stereo not given) , report its measured Population Hoechst High Intensity Objects (%).
A) 12

Q) Given the entry O=C(c1cc2c(cc1F)OC(c1ccc(F)cc1)(c1ccc(Cl)cc1Cl)O2)N1CCOCC1 (stereo not given) , report its measured Population Hoechst High Intensity Objects (%).
A) 13

Q) Given the entry C=CC(=O)Nc1cccc(Sc2nc(Nc3ccc(N4CCN(C)CC4)cc3)ncc2Cl)c1 , report its measured Population Hoechst High Intensity Objects (%).
A) 13

Q) Given the entry CCCSc1nc(N[C@@H]2C[C@H]2c2ccc(F)c(F)c2)c2nnn([C@@H]3C[C@H](OCCO)[C@@H](O)[C@H]3O)c2n1 [TICAGRELOR] , report its measured Population Hoechst High Intensity Objects (%).
A) 9

Q) Given the entry COc1cc2ncn(-c3cc(OCc4ccccc4C(F)(F)F)c(C(N)=O)s3)c2cc1OC [GW843682X] , report its measured Population Hoechst High Intensity Objects (%).
A) 14

Q) Given the entry Cc1ccc2c(c1)c1c(n2CCc2ccc(C)nc2)CCN(C)C1 [LATREPIRDINE] , report its measured Population Hoechst High Intensity Objects (%).
A) 15

Q) Given the entry COc1ccccc1CN[C@H]1C2CCN(CC2)[C@H]1C(c1ccccc1)c1ccccc1 [CP-96345] , report its measured Population Hoechst High Intensity Objects (%).
A) 13

Q) Given the entry CN1CCN(Cc2ccc(Nc3ncc(Cl)c(Nc4ccccc4S(=O)(=O)N(C)C)n3)cc2)CC1 [DUBERMATINIB] , report its measured Population Hoechst High Intensity Objects (%).
A) 12

* * *

System: Fibroblast
Assay: Multiplex assay against human fibroblast
Assay type: toxicity, cell-based
Conditions: 48 h, 1 µM, compound concentration 1 uM, replicate 2
value-type: Population Mitochondria Different-Phenotype (%)
Record the result as number plus unit.

Q) Given the entry Cl.O=C(O)c1cc(-c2ccc(C3CCNCC3)cc2)c2ccc(-c3ccc(C(F)(F)F)cc3)cc2c1 , report its measured Population Mitochondria Different-Phenotype (%).
A) 2%

Q) Given the entry CC(C)c1noc(N2CCC(COc3ccc(-c4ccc(S(C)(=O)=O)cc4)nc3)CC2)n1 , report its measured Population Mitochondria Different-Phenotype (%).
A) 2%

Q) Given the entry O=C(c1cc2c(cc1F)OC(c1ccc(F)cc1)(c1ccc(Cl)cc1Cl)O2)N1CCOCC1 (centres undefined) , report its measured Population Mitochondria Different-Phenotype (%).
A) 5%

Q) Given the entry CC(C)OC(=O)N1CCC(Oc2ncnc3c2cnn3-c2ccc(S(C)(=O)=O)cc2F)CC1 , report its measured Population Mitochondria Different-Phenotype (%).
A) 2%
